- system.name: gE WT: HSV2 gE wildtype ectodomain (HSV2, UniProt P89475 21-416)
- test.description: ELISA, supernatant

{"binder": "mAb clone 43 (antibody, V domains shown, also called GEGI/43IIa) VH: DVKLVESGGGLVKPGGSLKLSCAASGFTFSSYTMSWVRQTPEKRLEWVATISSGGSYTYYPDSVKGRFTISRDNAKNTLYLQMSSLKAEDTAMYYCTRGGYGSSFENYFDYWGQGTTLTVSS VL: DIVMSQSPSSLAVSAGEKVTMSCKSSQSLLNSRTRKNYLAWYQQKPGQSPKLLIYWASTRESGVPDRFTGSGSGTDFTLTISSVQAEDLAVYSCKQSYNLPLTFGAGTKLELK", "binding result": "binds"}
{"binder": "mAb clone 24 (antibody, V domains shown) VH: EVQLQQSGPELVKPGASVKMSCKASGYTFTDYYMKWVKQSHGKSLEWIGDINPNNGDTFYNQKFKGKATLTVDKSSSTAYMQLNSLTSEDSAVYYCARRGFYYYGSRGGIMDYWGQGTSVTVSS VL: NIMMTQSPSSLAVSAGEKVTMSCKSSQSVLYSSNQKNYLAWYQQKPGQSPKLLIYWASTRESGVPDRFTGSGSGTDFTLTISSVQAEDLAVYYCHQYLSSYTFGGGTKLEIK", "binding result": "no binding"}
{"binder": "mAb clone 34 (antibody, V domains shown) VH: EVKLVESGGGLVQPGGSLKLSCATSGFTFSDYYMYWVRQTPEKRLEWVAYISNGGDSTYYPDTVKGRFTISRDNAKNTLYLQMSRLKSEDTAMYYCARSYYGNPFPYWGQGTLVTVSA VL: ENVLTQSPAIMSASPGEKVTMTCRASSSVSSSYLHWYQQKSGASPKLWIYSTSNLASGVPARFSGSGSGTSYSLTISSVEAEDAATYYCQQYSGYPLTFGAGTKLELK", "binding result": "no binding"}
